Experiment: NCI Yeast Anticancer Drug Screen. Data for the sgs1 mgt1 strain (AID 161);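 note: 0% = growth of cultures given vehicle only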
Details: S. cerevisiae sgs1 mgt1 strain, at 50.0 µM (retest, dose inferred, filed as 5.0), hits give high values
This is part of a sample that, as a whole, favours compounds with a hit. Of some 79,000 tested, about 15% had one in any assay.
Quick list: growth inhibition per entry.
RECORDED_ENDPOINT: growth inhibition (%)

MOLECULE	UNIT_SYMBOL	MEASURED_NUMBER
CC(Cc1ccccc1)N(C)Cc1nc(C2CCC([N+](=O)[O-])O2)no1 (stereo not drawn)	%	99
Cc1c(N)nc([C@H](CC(N)=O)NC[C@H](N)C(N)=O)nc1C(=O)N[C@H](C(=O)N[C@H](C)[C@@H](O)[C@H](C)C(=O)N[C@H](C(=O)NCCc1nc(-c2nc(C(=O)NCCC[S+](C)C)cs2)cs1)[C@@H](C)O)C(OC1OC(CO)C(O)C(O)C1OC1OC(CO)C(O)C(OC(N)=O)C1O)c1cnc[nH]1 (stereo partly drawn)	%	99
C=Cc1cc(OC)c2c(c1)c(=O)oc1c2cc(OC)c2c(O)ccc(C3OC(C)C(O)C(C)(O)C3O)c21 (stereo not drawn)	%	98
c1ccc(CCNCc2ccccc2)cc1	%	0
COc1ccc(OC)c(C=O)c1	%	12
C[C@@H]1CC[C@@]2(NC1)O[C@H]1C[C@H]3[C@@H]4CC[C@H]5C[C@@H](O)CC[C@]5(C)[C@H]4CC[C@]3(C)[C@H]1[C@@H]2C	%	100
c1ccc2c(c1)c1cccc3c4c5ccccc5c5cccc(c2c13)c54	%	-1
CCOC(=S)S	%	99

###

growth inhibition values by entry
Test: NCI Yeast Anticancer Drug Screen. Data for the mlh1 rad18 strain (AID 175)
Conditions: S. cerevisiae mlh1 rad18 strain growth inhibition; at 50.0 µM; hits give high values
Compounds without any hit were thinned out: in the full panel of roughly 79,000, 15% have a hit.
RECORDED_ENDPOINT: growth inhibition (%)

MOLECULE	RECORDED_ENDPOINT	MEASURED_NUMBER
CCCCCCC1CC2(Cl)C(Cl)=C(Cl)C1(Cl)C2(Cl)Cl (stereo not given)	growth inhibition	99.5
CC(Br)CN1CCOCC1 (stereo not given)	growth inhibition	96.2
COC(=O)C1C2c3ccccc3C(c3ccccc32)C1C(=O)OC (stereo not given)	growth inhibition	17.1
CCNC(=O)OCC1C2=C(C(=O)C(C)=C(N)C2=O)N2CC3C(N3C)C12OC (stereo not given)	growth inhibition	70.8
COc1cc(C2c3cc4c(cc3[C@@H](Nc3ccc(N)cc3)C3COC(=O)[C@H]23)OCO4)cc(OC)c1O (stereo not given in full)	growth inhibition	85.9
NC(=O)c1ccc(N)nc1	growth inhibition	7.75
COC1OC(COC(C)=O)C(OC(C)=O)C(OC(C)=O)[C]1(OC(C)=O)[Hg][O]C(C)=O (stereo not given)	growth inhibition	99.7
O=[N+]([O-])c1ccc([Se]CCBr)c([N+](=O)[O-])c1	growth inhibition	19.8
CC1(C)C(=O)C=CC2(C)C1CC(O)C1(C)C2CCC2(C)C(c3ccoc3)OC(=O)C3OC321 (stereo not given)	growth inhibition	44.5
Nc1nc(N)c2c(Cl)c(CNc3ccc(C(=O)NC(CC(=O)O)C(=O)O)cc3)ccc2n1 (stereo not given)	growth inhibition	52.1
